B1: TRIM55 (parent)
chain: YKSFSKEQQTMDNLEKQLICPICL

Variants of: B1
Assay: protein stability index of a GFP-peptide fusion (GPS, HEK-293T) (PSI 1-6); higher = more stable;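 note: lentivirally expressed fusions sorted by FACS into six bins by GFP to DsRed ratio, PSI derived from sequencing read proportions per bin multiplied by bin number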
Details: c terminus: a fixed tail appended
Decide using protein stability index: a value greater than or equal to 2 is Condition met, a smaller one is Condition not met.

Input: Is it the case that `F4I` has protein stability index reaching or exceeding 2?
Output: Condition met

Input: // next record `E7G`
Output: Condition not met

Input: // next record `T10Y`
Output: Condition not met

Input: // next record `K2P`
Output: Condition met

Input: // next record `Q8H`
Output: Condition met

Input: // next record `L24Y`
Output: Condition met

Input: // next record `N13Y`
Output: Condition not met

Input: // next record `Q9D`
Output: Condition met

Input: // next record `T10P`
Output: Condition met

Input: // next record `M11N`
Output: Condition met

Input: // next record `C20W`
Output: Condition not met
